PROCEDURE_TEXT: Cytotoxicity against human MRC9 cells assessed as reduction in cell growth incubated for 72 hrs by Cell titer-blue assay
Assay type: toxicity, cell-based
EXPERIMENTAL_READOUT: IC50 at 72 h

I would be grateful if you could share the reported IC50 at 72 h for O=C(CCCCCCNC(=O)c1cnc(N(c2ccccc2)c2ccccc2Cl)nc1)NO [CITARINOSTAT] . > 30 µM

----------
Kindly supply the reported IC50 at 72 h values for the records listed here.
PROCEDURE_TEXT: in vitro
ASSAY_CONTEXT: human, MRC9 cells

So what does the record say about IC50 at 72 h for O=C(NO)c1ccc(CN(C2CC2)S(=O)(=O)c2c(F)cc(F)c(Cl)c2F)cc1 ? > 20 µM

# IC50 at 72 h lookup, item O=C(NO)c1cccc(CN(C2CC2)S(=O)(=O)c2c(F)c(F)c(F)c(F)c2F)c1 > 50 µM

Request the reported IC50 at 72 h associated with O=C(CCCCCCNC(=O)c1cnc(N(c2ccccc2)c2ccccc2)nc1)NO > 20 µM

I'd like to know its IC50 at 72 h. The compound in question is O=C(NO)c1ccc(CNC(=O)c2c(F)c(F)c(F)c(F)c2F)cc1 > 50 µM

Name the reported IC50 at 72 h value associated with the compound O=C(NO)c1ccc(CN(C2CC2)S(=O)(=O)c2c(F)c(F)cc(F)c2F)cc1 > 15 µM

What value of IC50 at 72 h has been reported for the following compound? O=C(NO)c1ccc(CNS(=O)(=O)c2c(F)c(F)c(F)c(F)c2F)cc1 > 25 µM

Look up IC50 at 72 h for this compound: O=C(NO)c1ccc(CN(C2CC2)S(=O)(=O)c2c(F)cc(F)cc2F)cc1 > 20 µM

// returns reported IC50 at 72 h for input O=C(NO)c1ccc(CN(C2CC2)S(=O)(=O)c2ccc(F)cc2)cc1 > 50 µM

Fill in: IC50 at 72 h of O=C(CCCCCCNC(=O)c1cnc(N(c2ccccc2)c2ccccc2Cl)nc1)NO is ___ > 30 µM

Looking for the measured IC50 at 72 h of O=C(NO)c1ccc(CN(C2CC2)S(=O)(=O)c2c(F)c(F)c(F)c(F)c2F)cc1 , can you help? > 20 µM

# lookup: IC50 at 72 h of O=C(NO)c1ccc(CN(C2CC2)S(=O)(=O)c2c(F)c(Cl)c(F)c(Cl)c2F)cc1 > 50 µM
